Entry source: patent US9340579B2

target: DPP-4 (manufactured by Sigma, derived from porcine kidney) (Sus scrofa, UniProt P22411); construct: derived from porcine kidney; purchased Sigma; host or cells: porcine kidney (tissue-derived); assay: DPP-4 inhibition rate and IC50 measurement, fluorescence of AMC freed from Gly-Pro-MCA; assay type: biochemical; details: Table 2; sample 0.35 mg/ml; substrate Gly-Pro-MCA; pH 7.5, 37° C.; read-out: Inhibition rate (%) at 0.35 mg/ml time
Sequence (P22411 whole entry): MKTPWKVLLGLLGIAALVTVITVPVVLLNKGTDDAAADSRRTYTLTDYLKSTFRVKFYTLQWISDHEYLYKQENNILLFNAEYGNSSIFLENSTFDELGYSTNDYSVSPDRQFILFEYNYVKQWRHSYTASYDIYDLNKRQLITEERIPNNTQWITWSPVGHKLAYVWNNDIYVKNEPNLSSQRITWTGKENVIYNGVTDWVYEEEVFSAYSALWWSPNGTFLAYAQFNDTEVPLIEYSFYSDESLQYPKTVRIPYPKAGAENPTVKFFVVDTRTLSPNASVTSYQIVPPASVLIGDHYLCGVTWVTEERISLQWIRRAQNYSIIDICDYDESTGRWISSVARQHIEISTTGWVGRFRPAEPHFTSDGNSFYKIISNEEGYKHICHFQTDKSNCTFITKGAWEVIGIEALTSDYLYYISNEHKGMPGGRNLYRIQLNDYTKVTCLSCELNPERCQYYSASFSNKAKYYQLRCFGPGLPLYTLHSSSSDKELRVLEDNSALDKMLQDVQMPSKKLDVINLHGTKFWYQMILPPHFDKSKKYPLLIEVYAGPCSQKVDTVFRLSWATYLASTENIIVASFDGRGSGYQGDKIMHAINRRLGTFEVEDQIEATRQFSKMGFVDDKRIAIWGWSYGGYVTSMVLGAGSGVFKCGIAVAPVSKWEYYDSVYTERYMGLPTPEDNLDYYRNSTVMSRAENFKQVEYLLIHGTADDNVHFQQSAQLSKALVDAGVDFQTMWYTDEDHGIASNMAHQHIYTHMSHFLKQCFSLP
Square brackets hold non-standard residues; d marks the D form. Peptide text beside a SMILES is read from it. Hyp = O=C(O)[C@@H]1C[C@@H](O)CN1
value_kind: inhibition at 350 µg/mL

CC(C)C[C@H](N)C(=O)N1C[C@H](O)C[C@H]1C(=O)NCC(=O)N1CCC[C@H]1C(=O)N[C@@H](C)C(=O)O [Example 23, Leu-Hyp-Gly-Pro-Ala] (H-L[Hyp]GPA-OH)    52.1%
CC(C)C[C@H](N)C(=O)N1C[C@H](O)C[C@H]1C(=O)O [Example 20, Leu-Hyp] (H-Leu-[Hyp]-OH)    48.6%
C[C@H](N)C(=O)N1C[C@H](O)C[C@H]1C(=O)NCC(=O)O [Example 25, Ala-Hyp-Gly] (H-Ala-[Hyp]-Gly-OH; N-terminus and C-terminus assumed)    14.6%
CC(C)C[C@H](N)C(=O)N1CCC[C@H]1C(=O)O [Example 16, Leu-Pro] (H-Leu-Pro-OH; N-terminus and C-terminus assumed)    92.1%
CC(C)C[C@H](N)C(=O)N1C[C@H](O)C[C@H]1C(=O)NCC(=O)O [Example 21, Leu-Hyp-Gly] (H-Leu-[Hyp]-Gly-OH)    89.3%
O=C(O)CNC(=O)[C@@H]1C[C@@H](O)CN1C(=O)[C@@H]1CCCN1 [Example 24, Pro-Hyp-Gly] (H-Pro-[Hyp]-Gly-OH; N-terminus and C-terminus assumed)    27.2%
CC[C@H](C)[C@H](N)C(=O)N1C[C@H](O)C[C@H]1C(=O)NCC(=O)O [Example 22, Ile-Hyp-Gly] (H-Ile-[Hyp]-Gly-OH; N-terminus and C-terminus assumed)    71%
